B1: CPEB3 Ribozyme (parent)
chain: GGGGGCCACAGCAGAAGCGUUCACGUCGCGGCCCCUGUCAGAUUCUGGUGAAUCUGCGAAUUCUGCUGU

Variants of: B1
TEST_DETAILS: self-cleavage, relative activity (ratio to wild type); higher = more cleavage; co-transcriptional
Below, each entry is listed alongside its reported self-cleavage.
ASSAY_READOUT: self-cleavage

[[record]]
residue_sequence = "GGGGGCCACAGCAGUAGCGUUCACGUCGCGGCCCCUGUCAGAUUCUGGGGAAUCUGCGAAUUCUGCUGU [A15U U49G]"
recorded_number = 0.884

[[record]]
residue_sequence = "GGGGGUCACAUCAGAAGCGUUCACGUCGCGGCCCCUGUCAGAUUCUGGUGAAUCUGCGAAUUCUGCUGU [C6U G11U]"
recorded_number = 0.876

[[record]]
residue_sequence = "GGGGGCCACAGCAGAAGCGUUCGCGUCGCGGCCCCUGUCAGAUUCUGGUGAAUCUUCGAAUUCUGCUGU [A23G G56U]"
recorded_number = 0.914

[[record]]
residue_sequence = "GGGGGCCACAGCAGAAGCGUUCACGUCGCGACCCCUGUCAGAUUCUGGUGUAUCUGCGAAUUCUGCUGU [G31A A51U]"
recorded_number = 0.879

